- ASSAY_INFO: Half life of the compound in NaOH buffer at pH 10 by HPLC analysis
- Format: physicochemical
Quick reference for half-life among some compounds
# unit: min | format: bare number

Reference set, count: 2
C=CCc1ccc(OC(=O)C(C)c2ccc(CC(C)C)cc2)c(OC)c1 (racemic)    80.3
CC(C)Cc1ccc(C(C)C(=O)OC2CC(C)CCC2C(C)C)cc1 (stereo not drawn)    163

Shifting focus to the compound that follows.
// half-life lookup, key: Cc1ccc(C(C)C)c(OC(=O)C(C)c2ccc(CC(C)C)cc2)c1 (racemic)
145

---

- ASSAY_INFO: Half life of the compound in phosphate buffer at pH 7.4
- Assay type: physicochemical
READOUT_TYPE: half-life

// half-life lookup, key: Cc1ccc(C(C)C)c(OC(=O)C(C)c2ccc(CC(C)C)cc2)c1 (racemic)
5.19 h

// half-life lookup, key: C=CCc1ccc(OC(=O)C(C)c2ccc(CC(C)C)cc2)c(OC)c1 (racemic)
2.84 h

// half-life lookup, key: CC(C)Cc1ccc(C(C)C(=O)OC2CC(C)CCC2C(C)C)cc1 (stereo not drawn)
6.01 h
